- target_entity: CSF1R (Homo sapiens)
- measurement_protocol: Cellular CSF1R inhibition ELISA (p-CSF1R, M-CSF-induced) using THP-1 cells
- Source text: The normal proto-oncogene c-fms encodes the macrophage growth factor (M-CSF, also known as CSF1) receptor involved in growth, survival, and differentiation along the monocyte-macrophage lineage. THP-1 cells act as a model for human monocytes. It confirms that an increased phosphorylation of CSF1R (p-CSF1R) can be observed, when induced by CSF1R ligand, CSF1. The THP-1 cells should be maintained from 5×10^5 to 1×10^6 cells/ml in the cell culture flask. […]
pIC50: −log10 of the molar value.
endpoint_label: pIC50

These solved cases illustrate the format of a correct answer.
# smiles_input, target_entity, reading
measured = [
    ("COc1cc2nccc(Oc3ccc(NC(=O)c4nn(CC(C)C)cc4OCC(F)(F)F)nc3)c2cc1OC", "CSF1R (Homo sapiens)", "> 6.30"),
    ("COc1cc2nccc(Oc3ccc(NC(=O)c4nn(CC(C)=O)cc4OCC(F)(F)F)nc3)c2cc1OC", "CSF1R (Homo sapiens)", "> 6.30"),
]

Kindly note the recorded pIC50 for COc1cc2nccc(Oc3ccc(NC(=O)c4nn(CC5CNC5)cc4OCC(F)(F)F)nc3)c2cc1OC , which is > 6.30

Kindly note the recorded pIC50 for CCCn1cc(OCC(F)(F)F)c(C(=O)Nc2ccc(Oc3ccnc4cc(OC)c(OC)cc34)nc2)n1 , which is ≤ 6.00

Kindly note the recorded pIC50 for COCCn1cc(OCC(F)(F)F)c(C(=O)Nc2ccc(Oc3ccnc4cc(OC)c(OC)cc34)nc2)n1 , which is ≤ 6.00

###

- target_entity: CSF1R (Homo sapiens, UniProt P07333)
- Sequence (P07333 20-972): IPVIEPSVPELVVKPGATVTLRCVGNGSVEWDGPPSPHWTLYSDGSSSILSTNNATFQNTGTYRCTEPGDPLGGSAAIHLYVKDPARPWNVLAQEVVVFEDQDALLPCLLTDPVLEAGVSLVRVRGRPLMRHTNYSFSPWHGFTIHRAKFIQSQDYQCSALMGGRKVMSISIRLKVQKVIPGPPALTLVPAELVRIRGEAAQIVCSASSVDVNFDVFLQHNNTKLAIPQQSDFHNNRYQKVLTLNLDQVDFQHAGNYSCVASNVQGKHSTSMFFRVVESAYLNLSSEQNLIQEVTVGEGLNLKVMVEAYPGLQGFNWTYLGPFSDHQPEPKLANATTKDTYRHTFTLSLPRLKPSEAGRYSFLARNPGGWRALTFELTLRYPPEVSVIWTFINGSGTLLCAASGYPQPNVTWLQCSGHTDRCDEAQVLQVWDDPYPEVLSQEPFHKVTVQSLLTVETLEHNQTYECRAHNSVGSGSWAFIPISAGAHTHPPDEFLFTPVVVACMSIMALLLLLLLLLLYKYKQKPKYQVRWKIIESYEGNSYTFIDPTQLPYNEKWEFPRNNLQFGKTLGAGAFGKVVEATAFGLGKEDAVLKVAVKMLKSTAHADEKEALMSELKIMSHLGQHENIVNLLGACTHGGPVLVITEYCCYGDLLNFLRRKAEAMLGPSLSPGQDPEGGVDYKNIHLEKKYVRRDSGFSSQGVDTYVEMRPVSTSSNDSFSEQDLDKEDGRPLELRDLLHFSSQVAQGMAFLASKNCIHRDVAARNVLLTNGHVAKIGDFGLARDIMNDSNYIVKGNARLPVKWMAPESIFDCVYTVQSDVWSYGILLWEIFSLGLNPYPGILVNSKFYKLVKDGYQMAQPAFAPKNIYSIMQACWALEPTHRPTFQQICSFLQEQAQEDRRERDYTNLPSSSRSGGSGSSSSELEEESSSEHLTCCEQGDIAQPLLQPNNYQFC
- measurement_protocol: Cellular CSF1R inhibition ELISA (p-CSF1R, M-CSF-induced) using THP-1 cells
pIC50: −log10 of the molar value.
endpoint_label: pIC50

These solved cases illustrate the format of a correct answer.
# compound, pIC50
measured = [
    ("COc1cc2nccc(Oc3ccc(NC(=O)c4nn(C5CC5)cc4OC(C)C)nc3)c2cc1OC", "> 6.30"),
    ("COc1cc2nccc(Oc3ccc(NC(=O)c4nn(C5CCC5)cc4OCC(F)(F)F)nc3)c2cc1OC", "> 6.30"),
    ("COc1cc2nccc(Oc3ccc(NC(=O)c4nn(CC(C)(F)F)cc4OCC(F)(F)F)nc3)c2cc1OC", "> 6.30"),
    ("COCCOc1cn(CC(C)O)nc1C(=O)Nc1ccc(Oc2ccnc3cc(OC)c(OC)cc23)cn1 (stereo not shown)", "≤ 6.00"),
    ("COc1cc2nccc(Oc3ccc(NC(=O)c4nn(CC5COC5)cc4OCC(F)(F)F)cc3C)c2cc1OC", "6.00 to 6.30"),
]

For the compound COc1cc2nccc(Oc3ccc(NC(=O)c4nn(CC5COC5)cc4OCC(F)(F)F)nc3)c2cc1OC , the measured pIC50 on CSF1R (Homo sapiens, UniProt P07333) was > 6.30

For the compound COc1cc2nccc(Oc3ccc(NC(=O)c4nn(CC5CCNC5)cc4OCC(F)(F)F)nc3)c2cc1OC (stereo not shown) , the measured pIC50 on CSF1R (Homo sapiens, UniProt P07333) was > 6.30

For the compound COCCOc1cn(C2CC2)nc1C(=O)Nc1ccc(Oc2ccnc3cc(OC)c(OC)cc23)nn1 , the measured pIC50 on CSF1R (Homo sapiens, UniProt P07333) was ≤ 6.00

For the compound COc1cc2nccc(Oc3ccc(NC(=O)c4nn(C[C@H](C)O)cc4OCC(F)(F)F)nc3)c2cc1OC , the measured pIC50 on CSF1R (Homo sapiens, UniProt P07333) was > 6.30

For the compound CCCn1cc(OCC(F)(F)F)c(C(=O)Nc2ccc(Oc3ccnc4cc(OC)c(OC)cc34)c(C)c2)n1 , the measured pIC50 on CSF1R (Homo sapiens, UniProt P07333) was > 6.30

For the compound COc1cc2nccc(Oc3ccc(NC(=O)c4nn(C)cc4OCC(F)(F)F)nn3)c2cc1OC , the measured pIC50 on CSF1R (Homo sapiens, UniProt P07333) was > 6.30

For the compound COc1cc2nccc(Oc3ccc(NC(=O)c4nn(CCN)cc4OCC(F)(F)F)cn3)c2cc1OC , the measured pIC50 on CSF1R (Homo sapiens, UniProt P07333) was ≤ 6.00

For the compound COc1cc2nccc(Oc3ccc(NC(=O)c4nn(C5COC5)cc4OCC(F)(F)F)nc3)c2cc1OC , the measured pIC50 on CSF1R (Homo sapiens, UniProt P07333) was > 6.30
